# Tested on: H. influenzae ATCC49247
# Test details: MIC, microdilution broth method (NCCLS)
# Type: cell-based
# Run parameters: 35° C., 16-20 hours
Item-by-item account of MIC (μg/mL) E
Observation type: MIC (μg/mL) E (µg/mL)

Molecule	Sign	Endpoint value
CCC1OC(=O)C(C)C(=O)C(C)C(OC2OC(C)CC(N(C)C)C2O)C(C)(OC(=O)NCc2ccc(C=Cc3ccc4ccccc4n3)cc2)CC(C)C(=O)C(C)C2CC(=O)OC12C (stereo not drawn)	=	16
CCC1OC(=O)C(C)C(=O)C(C)C(OC2OC(C)CC(N(C)C)C2O)C(C)(OC(=O)NCC=Cc2cnc3ccccc3c2)CC(C)C(=O)C(C)C2CC(=O)OC12C (stereo not drawn)	=	16
CCC1OC(=O)C(C)C(=O)C(C)C(OC2OC(C)CC(N(C)C)C2O)C(C)(OC(=O)NCC=Cc2ccc(-c3ccccn3)cc2)CC(C)C(=O)C(C)C2C(OC)C(=O)OC12C (stereo not drawn)	=	8
CCC1OC(=O)C(C)C(=O)C(C)C(OC2OC(C)CC(N(C)C)C2O)C(C)(OC(=O)NCc2ccc(-c3cncnc3)cc2)CC(C)C(=O)C(C)C2CC(=O)OC12C (stereo not drawn)	=	16
CCC1OC(=O)C(C)C(=O)C(C)C(OC2OC(C)CC(N(C)C)C2O)C(C)(OC(=O)NCc2ccc(Br)cc2)CC(C)C(=O)C(C)C2CC(=O)OC12C (stereo not drawn)	=	16
CC[C@H]1OC(=O)[C@H](C)C(=O)[C@H](C)[C@@H](O[C@@H]2O[C@H](C)C[C@H](N(C)C)[C@H]2O)[C@](C)(OC(=O)NC/C=C/c2ccc(-n3cnnc3)cc2)C[C@@H](C)C(=O)C(C)[C@H]2CC(=O)O[C@@]21C (stereo partly drawn)	=	4
CCC1OC(=O)C(C)C(=O)C(C)C(OC2OC(C)CC(N(C)C)C2O)C(C)(OC(=O)NCC=Cc2ccc3nccnc3c2)CC(C)C(=O)C(C)C2CC(=O)OC12C (stereo not drawn)	=	2
CCC1OC(=O)C(C)C(=O)C(C)C(OC2OC(C)CC(N(C)C)C2O)C(C)(OC(=O)NCC=Cc2ccc(-c3ccccn3)cc2)CC(C)C(=O)C(C)C2CC(=O)OC12C (stereo not drawn) [Compound 29]	=	2
CCC1OC(=O)C(C)C(=O)C(C)C(OC2OC(C)CC(N(C)C)C2O)C(C)(OC(N)=O)CC(C)C(=O)C(C)C2CC(=O)OC12C (stereo not drawn)	>	16
CCC1OC(=O)C(C)C(=O)C(C)C(OC2OC(C)CC(N(C)C)C2O)C(C)(OC(=O)NCC=Cc2ccc3cccnc3c2)CC(C)C(=O)C(C)C2CC(=O)OC12C (stereo not drawn)	>	16
CCC1OC(=O)C(C)C(=O)C(C)C(OC2OC(C)CC(N(C)C)C2O)C(C)(OC(=O)NCC=Cc2cncc(-c3ncccn3)c2)CC(C)C(=O)C(C)C2CC(=O)OC12C (stereo not drawn)	=	1
CCC1OC(=O)C(C)C(=O)C(C)C(OC2OC(C)CC(N(C)C)C2O)C(C)(OC(=O)NCC=Cc2ccc(-c3ncccn3)cc2F)CC(C)C(=O)C(C)C2CC(=O)OC12C (stereo not drawn)	=	8
CCC1OC(=O)C(C)C(=O)C(C)C(OC2OC(C)CC(N(C)C)C2O)C(C)(OC(=O)NCc2ccc3ncccc3c2)CC(C)C(=O)C(C)C2CC(=O)OC12C (stereo not drawn)	=	8
CCC1OC(=O)C(C)C(=O)C(C)C(OC2OC(C)CC(N(C)C)C2O)C(C)(OC(=O)N(CC=Cc2ccc(Br)cc2)CC=Cc2ccc(Br)cc2)CC(C)C(=O)C(C)C2CC(=O)OC12C (stereo not drawn)	>	16
CCC1OC(=O)C(C)C(=O)C(C)C(OC2OC(C)CC(N(C)C)C2O)C(C)(OC(=O)NCC=Cc2ccc3cccnc3c2)CC(C)C(=O)C(C)C2C(OC)C(=O)OC12C (stereo not drawn)	=	8
CCC1OC(=O)C(C)C(=O)C(C)C(OC2OC(C)CC(N(C)C)C2O)C(C)(OC(=O)NCC=Cc2ccc3ncccc3c2)CC(C)C(=O)C(C)C2CC(=O)OC12C (stereo not drawn)	=	1
CCC1OC(=O)C(C)C(=O)C(C)C(OC2OC(C)CC(N(C)C)C2O)C(C)(OC(=O)NCc2ccc3ccccc3n2)CC(C)C(=O)C(C)C2CC(=O)OC12C (stereo not drawn)	=	8
CCC1OC(=O)C(C)C(=O)C(C)C(OC2OC(C)CC(N(C)C)C2O)C(C)(OC(=O)NCC=Cc2ccc(-c3cncnc3)cc2)CC(C)C(=O)C(C)C2CC(=O)OC12C (stereo not drawn)	=	8
CCC1OC(=O)C(C)C(=O)C(C)C(OC2OC(C)CC(N(C)C)C2O)C(C)(OC(=O)NCC#Cc2cccnc2)CC(C)C(=O)C(C)C2CC(=O)OC12C (stereo not drawn)	=	8
CCC1OC(=O)C(C)C(=O)C(C)C(OC2OC(C)CC(N(C)C)C2O)C(C)(OC(=O)NCc2ccc(C=Cc3ccccc3)cc2)CC(C)C(=O)C(C)C2CC(=O)OC12C (stereo not drawn)	=	8
CCC1OC(=O)C(C)C(=O)C(C)C(OC2OC(C)CC(N(C)C)C2O)C(C)(OC(=O)N(CC=Cc2cncc(-c3ccccn3)c2)CC=Cc2cncc(-c3ccccn3)c2)CC(C)C(=O)C(C)C2CC(=O)OC12C (stereo not drawn)	=	16

---

# System: S. aureus ATCC29213
# Test details: MIC, microdilution broth method (NCCLS)
# Format: cell-based
# Run parameters: 35° C., 16-20 hours
Observation type: MIC (μg/mL) B

Compound	System	Endpoint value
CCC1OC(=O)C(C)C(=O)C(C)C(OC2OC(C)CC(N(C)C)C2O)C(C)(OC(=O)NCc2ccc(-c3ccccn3)cc2)CC(C)C(=O)C(C)C2CC(=O)OC12C (stereo not shown) [Compound 26]	S. aureus ATCC29213	1 µg/mL
CCC1OC(=O)C(C)C(=O)C(C)C(OC2OC(C)CC(N(C)C)C2O)C(C)(OC(=O)NCC=Cc2cccc(-c3ccccn3)c2)CC(C)C(=O)C(C)C2CC(=O)OC12C (stereo not shown) [Compound 13]	S. aureus ATCC29213	1 µg/mL
CCC1OC(=O)C(C)C(=O)C(C)C(OC2OC(C)CC(N(C)C)C2O)C(C)(OC(=O)N(CC=Cc2ccc(Br)cc2)CC=Cc2ccc(Br)cc2)CC(C)C(=O)C(C)C2CC(=O)OC12C (stereo not shown) [Compound 23]	S. aureus ATCC29213	8 µg/mL
CCC1OC(=O)C(C)C(=O)C(C)C(OC2OC(C)CC(N(C)C)C2O)C(C)(OC(=O)NCC=Cc2ccc(-c3cncnc3)cc2)CC(C)C(=O)C(C)C2CC(=O)OC12C (stereo not shown) [Compound 9]	S. aureus ATCC29213	0.5 µg/mL
CCC1OC(=O)C(C)C(=O)C(C)C(OC2OC(C)CC(N(C)C)C2O)C(C)(OC(=O)NCc2ccc3ccccc3n2)CC(C)C(=O)C(C)C2CC(=O)OC12C (stereo not shown) [Compound 28]	S. aureus ATCC29213	2 µg/mL
CCC1OC(=O)C(C)C(=O)C(C)C(OC2OC(C)CC(N(C)C)C2O)C(C)(OC(=O)NCC=Cc2ccc(Br)cc2)CC(C)C(=O)C(C)C2CC(=O)OC12C (stereo not shown) [Compound 22]	S. aureus ATCC29213	1 µg/mL
CCC1OC(=O)C(C)C(=O)C(C)C(OC2OC(C)CC(N(C)C)C2O)C(C)(OC(=O)NCc2ccc(C(=O)O)cc2)CC(C)C(=O)C(C)C2CC(=O)OC12C (stereo not shown) [Compound 4]	S. aureus ATCC29213	>16 µg/mL
CCC1OC(=O)C(C)C(=O)C(C)C(OC2OC(C)CC(N(C)C)C2O)C(C)(OC(=O)NCc2ccc(Br)cc2)CC(C)C(=O)C(C)C2CC(=O)OC12C (stereo not shown) [Compound 20]	S. aureus ATCC29213	2 µg/mL
CCC1OC(=O)C(C)C(=O)C(C)C(OC2OC(C)CC(N(C)C)C2O)C(C)(OC(=O)NCC=Cc2ccc3nccnc3c2)CC(C)C(=O)C(C)C2CC(=O)OC12C (stereo not shown) [Compound 38]	S. aureus ATCC29213	0.5 µg/mL
CCC1OC(=O)C(C)C(=O)C(C)C(OC2OC(C)CC(N(C)C)C2O)C(C)(OC(=O)NCC=Cc2cnc3ccccc3c2)CC(C)C(=O)C(C)C2CC(=O)OC12C (stereo not shown) [Compound 5]	S. aureus ATCC29213	0.5 µg/mL
CCC1OC(=O)C(C)C(=O)C(C)C(OC2OC(C)CC(N(C)C)C2O)C(C)(OC(=O)NCc2ccccc2)CC(C)C(=O)C(C)C2CC(=O)OC12C (stereo not shown) [Compound 19]	S. aureus ATCC29213	16 µg/mL
CCC1OC(=O)C(C)C(=O)C(C)C(OC2OC(C)CC(N(C)C)C2O)C(C)(OC(=O)NCC=Cc2cncc(-c3ccccn3)c2)CC(C)C(=O)C(C)C2CC(=O)OC12C (stereo not shown) [Compound 11]	S. aureus ATCC29213	0.5 µg/mL
CCC1OC(=O)C(C)C(=O)C(C)C(OC2OC(C)CC(N(C)C)C2O)C(C)(OC(N)=O)CC(C)C(=O)C(C)C2CC(=O)OC12C (stereo not shown) [Compound 1]	S. aureus ATCC29213	8 µg/mL
CCC1OC(=O)C(C)C(=O)C(C)C(OC2OC(C)CC(N(C)C)C2O)C(C)(OC(=O)N(CC=Cc2cncc(-c3ccccn3)c2)CC=Cc2cncc(-c3ccccn3)c2)CC(C)C(=O)C(C)C2CC(=O)OC12C (stereo not shown) [Compound 12]	S. aureus ATCC29213	2 µg/mL
CCC1OC(=O)C(C)C(=O)C(C)C(OC2OC(C)CC(N(C)C)C2O)C(C)(OC(=O)NCC=Cc2ccc(-c3ncccn3)cc2F)CC(C)C(=O)C(C)C2CC(=O)OC12C (stereo not shown) [Compound 32]	S. aureus ATCC29213	0.5 µg/mL
CCC1OC(=O)C(C)C(=O)C(C)C(OC2OC(C)CC(N(C)C)C2O)C(C)(OC(=O)NCC=Cc2ccc(-c3ccccn3)cc2)CC(C)C(=O)C(C)C2C(OC)C(=O)OC12C (stereo not shown) [Compound 6]	S. aureus ATCC29213	1 µg/mL
CC[C@H]1OC(=O)[C@H](C)C(=O)[C@H](C)[C@@H](O[C@@H]2O[C@H](C)C[C@H](N(C)C)[C@H]2O)[C@](C)(OC(=O)NC/C=C/c2ccc(-n3cnnc3)cc2)C[C@@H](C)C(=O)C(C)[C@H]2CC(=O)O[C@@]21C (stereo partly shown) [Compound 16]	S. aureus ATCC29213	0.5 µg/mL
CCC1OC(=O)C(C)C(=O)C(C)C(OC2OC(C)CC(N(C)C)C2O)C(C)(OC(=O)NCc2ccc(C=Cc3ccccc3)cc2)CC(C)C(=O)C(C)C2CC(=O)OC12C (stereo not shown) [Compound 21]	S. aureus ATCC29213	2 µg/mL
CCC1OC(=O)C(C)C(=O)C(C)C(OC2OC(C)CC(N(C)C)C2O)C(C)(OC(=O)NCC=Cc2ccnc3ccccc23)CC(C)C(=O)C(C)C2CC(=O)OC12C (stereo not shown) [Compound 39]	S. aureus ATCC29213	0.5 µg/mL
CCC1OC(=O)C(C)C(=O)C(C)C(OC2OC(C)CC(N(C)C)C2O)C(C)(OC(=O)NCC#Cc2cccnc2)CC(C)C(=O)C(C)C2CC(=O)OC12C (stereo not shown) [Compound 18]	S. aureus ATCC29213	2 µg/mL
CCC1OC(=O)C(C)C(=O)C(C)C(OC2OC(C)CC(N(C)C)C2O)C(C)(OC(=O)NCC=Cc2ccccn2)CC(C)C(=O)C(C)C2CC(=O)OC12C (stereo not shown) [Compound 33]	S. aureus ATCC29213	2 µg/mL
CCC1OC(=O)C(C)C(=O)C(C)C(OC2OC(C)CC(N(C)C)C2O)C(C)(OC(=O)NCC=Cc2ccc3ncccc3c2)CC(C)C(=O)C(C)C2CC(=O)OC12C (stereo not shown) [Compound 27]	S. aureus ATCC29213	0.5 µg/mL
